- subject of test: TAOK2 (TAO1) (h) (Homo sapiens (Human), UniProt Q9UL54)
- Sequence (Q9UL54 whole entry): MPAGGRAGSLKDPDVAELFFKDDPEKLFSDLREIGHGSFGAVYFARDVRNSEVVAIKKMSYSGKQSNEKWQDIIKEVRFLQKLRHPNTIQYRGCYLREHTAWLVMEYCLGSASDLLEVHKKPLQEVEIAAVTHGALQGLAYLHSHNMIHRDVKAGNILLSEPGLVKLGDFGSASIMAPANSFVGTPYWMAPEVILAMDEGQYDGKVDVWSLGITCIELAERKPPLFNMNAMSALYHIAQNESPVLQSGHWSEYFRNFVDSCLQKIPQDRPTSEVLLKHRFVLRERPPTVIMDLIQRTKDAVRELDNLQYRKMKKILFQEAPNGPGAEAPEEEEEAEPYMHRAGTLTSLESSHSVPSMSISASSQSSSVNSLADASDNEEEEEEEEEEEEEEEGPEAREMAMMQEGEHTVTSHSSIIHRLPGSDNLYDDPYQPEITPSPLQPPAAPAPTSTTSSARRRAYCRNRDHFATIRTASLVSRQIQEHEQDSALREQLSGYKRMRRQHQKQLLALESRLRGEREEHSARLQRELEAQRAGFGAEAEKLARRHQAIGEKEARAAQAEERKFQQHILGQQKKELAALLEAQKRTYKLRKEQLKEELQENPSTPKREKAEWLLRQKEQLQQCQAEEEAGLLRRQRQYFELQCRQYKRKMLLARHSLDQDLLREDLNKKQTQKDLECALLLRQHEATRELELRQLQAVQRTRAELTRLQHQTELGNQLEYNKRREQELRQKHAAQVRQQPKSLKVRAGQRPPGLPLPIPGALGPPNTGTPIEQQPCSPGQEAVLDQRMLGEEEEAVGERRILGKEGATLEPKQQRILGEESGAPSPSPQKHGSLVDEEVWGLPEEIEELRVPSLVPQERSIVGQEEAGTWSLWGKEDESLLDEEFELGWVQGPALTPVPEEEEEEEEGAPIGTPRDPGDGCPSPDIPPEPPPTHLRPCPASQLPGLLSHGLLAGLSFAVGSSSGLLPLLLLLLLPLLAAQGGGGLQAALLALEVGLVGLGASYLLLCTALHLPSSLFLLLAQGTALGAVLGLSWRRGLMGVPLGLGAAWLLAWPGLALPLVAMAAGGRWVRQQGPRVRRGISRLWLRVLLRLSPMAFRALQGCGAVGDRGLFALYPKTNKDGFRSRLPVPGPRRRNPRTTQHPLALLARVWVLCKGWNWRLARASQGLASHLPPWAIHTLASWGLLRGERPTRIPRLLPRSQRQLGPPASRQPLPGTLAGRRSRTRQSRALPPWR
- assay text: Kinase selectivity panel
- Assay type: biochemical
- measurement parameters: duplicate, read-out: % inhibition of control values, TAOK2 (TAO1) (h)
Structures can show the parent of a compound that is named as a salt.
Field 'label' (enum: T / F). Set to T when inhibition at 10 µM is strictly under 40%; else F.

Some solved cases for reference:
compound: COC(=O)c1csc(CN2CCC(CNC(=O)c3n[nH]c4ccc(OC)cc34)CC2)n1 [Compound 7]
label class: T
//
compound: O=C(O)c1coc(CN2CCC(CNC(=O)c3n[nH]c4ccc(-c5cccc(F)c5F)cc34)CC2)n1 [Compound 12, hydrate]
label class: F

Ask: Determine if COc1ccncc1-c1ccc2[nH]nc(C(=O)NCC3CCN(Cc4ccc(C(=O)O)o4)CC3)c2c1 [Compound 21, formate] shows inhibition at 10 µM strictly lower than 40%.
Result: F

Ask: Determine if COc1ccc2[nH]nc(C(=O)NCC3CCN(Cc4ccc(C(=O)O)o4)CC3)c2c1 [Compound 24] shows inhibition at 10 µM strictly lower than 40%.
Result: T

----------
- subject of test: Src kinase (h) (Homo sapiens (Human), UniProt P12931)
- Sequence (P12931 whole entry, looked up): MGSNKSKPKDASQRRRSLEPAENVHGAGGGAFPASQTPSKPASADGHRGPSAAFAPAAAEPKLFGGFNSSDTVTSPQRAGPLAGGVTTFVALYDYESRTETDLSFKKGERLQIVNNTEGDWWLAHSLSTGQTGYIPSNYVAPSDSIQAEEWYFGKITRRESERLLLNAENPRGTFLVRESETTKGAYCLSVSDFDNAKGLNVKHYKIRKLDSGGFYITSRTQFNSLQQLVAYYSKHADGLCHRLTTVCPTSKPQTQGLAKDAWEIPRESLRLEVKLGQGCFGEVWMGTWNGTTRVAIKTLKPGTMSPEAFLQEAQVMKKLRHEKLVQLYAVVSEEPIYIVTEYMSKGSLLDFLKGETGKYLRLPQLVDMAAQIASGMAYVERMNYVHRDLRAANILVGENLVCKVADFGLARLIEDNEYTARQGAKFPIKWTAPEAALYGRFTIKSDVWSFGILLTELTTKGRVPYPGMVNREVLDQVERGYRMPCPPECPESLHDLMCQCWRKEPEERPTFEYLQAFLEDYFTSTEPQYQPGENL
- assay text: Kinase selectivity panel
- Format: biochemical
- measurement parameters: duplicate, read-out: % inhibition of control values, Src kinase (h)
property label: inhibition at 10 µM

Check out these entries, answers already filled in.
compound: COc1ccc2[nH]nc(C(=O)NCC3CCN(Cc4ccc(C(=O)O)o4)CC3)c2c1 [Compound 24]
property label: inhibition at 10 µM
result: 0%
//
compound: COc1ccc2[nH]nc(C(=O)NCC3CCN(CCc4ccc(O)cc4)CC3)c2c1 [Compound 1]
property label: inhibition at 10 µM
result: 0%

Consider the additional compound presented here.
Ask: What value of inhibition at 10 µM has been reported for the following compound? O=C(O)c1coc(CN2CCC(CNC(=O)c3n[nH]c4ccc(-c5cccc(F)c5F)cc34)CC2)n1 [Compound 12, hydrate]
Result: 15%
